This collection of values is drawn from PubChem BioAssay AID1963832.

Test system: 885724-159-R-J1-PDC complex spheroid viability
Test: Anticancer human tumor 885724-159-R-J1-PDC patient-derived pancreatic adenocarcinoma cell line growth inhibition [POLQ]
Settings: second compound 0.1 µM; first compound 0.01 µM; hits give low values
Protocol: Multicellular complex tumor spheroid response to Polymerase (POL) inhibitors (novobiocin, ART-558, RP6685) in combination with a variety of drugs and investigational agents in selected tumor cell lines The POL inhibitors (novobiocin, ART-558, and RP6685) were evaluated both individually and in combination with standard of care and investigational anticancer small molecules within a complex spheroid model of solid tumors. . […]

COMPOUND	ENDPOINT_UNIT	viability, T/C
CC[C@@]1(O)C(=O)OCc2c1cc1n(c2=O)Cc2cc3c(CN(C)C)c(O)ccc3nc2-1 + Nc1ccc(C#CCN(C(=O)Cc2ncc(C(F)(F)F)cc2C(F)(F)F)c2ccc(F)cc2)nn1	%	82
CC[C@@]1(O)C(=O)OCc2c1cc1n(c2=O)Cc2cc3c(CN(C)C)c(O)ccc3nc2-1 + Cc1cccc(N(C)C(=O)C2C(O)CCN2c2nc(C)cc(C(F)(F)F)c2C#N)c1	%	93
C=CCn1c(=O)c2cnc(Nc3ccc(N4CCN(C)CC4)cc3)nc2n1-c1cccc(C(C)(C)O)n1 + Cc1cccc(N(C)C(=O)C2C(O)CCN2c2nc(C)cc(C(F)(F)F)c2C#N)c1	%	98
C=CCn1c(=O)c2cnc(Nc3ccc(N4CCN(C)CC4)cc3)nc2n1-c1cccc(C(C)(C)O)n1 + COC1C(OC(N)=O)C(O)C(Oc2ccc3c(O)c(NC(=O)c4ccc(O)c(CC=C(C)C)c4)c(=O)oc3c2C)OC1(C)C	%	99.7
COc1cccc(OCCCN)c1-c1cc(Nc2cnc(C#N)cn2)n[nH]1 + Cc1cccc(N(C)C(=O)C2C(O)CCN2c2nc(C)cc(C(F)(F)F)c2C#N)c1	%	57.1

----------
tested on: 885724-159-R-J1-PDC complex spheroid viability; experiment: Anticancer human tumor 885724-159-R-J1-PDC cell line growth inhibition [POLQ]; conditions: second compound 10 µM; first compound 0.0316 µM; hits give low values;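 also: spheroids exposed to compounds for 7 days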
Listing: viability, T/C of selected compounds

COMPOUND	ENDPOINT_UNIT	viability, T/C
COc1cccc(OCCCN)c1-c1cc(Nc2cnc(C#N)cn2)n[nH]1 + Cc1cccc(N(C)C(=O)C2C(O)CCN2c2nc(C)cc(C(F)(F)F)c2C#N)c1	%	45.4
COc1ccc([C@@H](O)c2cc(-c3ncnc4cc(N5CCOCC5)ccc34)c(F)cc2Cl)nn1 + Cc1cccc(N(C)C(=O)C2C(O)CCN2c2nc(C)cc(C(F)(F)F)c2C#N)c1	%	101
CCc1cc2c(N3CCc4c(cc(Cn5ccnc5)cc4-c4cn(C)nc4C(F)(F)F)C3=O)ccnc2c(OC)n1 + Nc1ccc(C#CCN(C(=O)Cc2ncc(C(F)(F)F)cc2C(F)(F)F)c2ccc(F)cc2)nn1	%	90.7
C=CC(=O)N1CCN(c2nc(=O)n(-c3c(C)ccnc3C(C)C)c3nc(-c4c(O)cccc4F)c(F)cc23)C(C)C1 (stereo not given) + Cc1cccc(N(C)C(=O)C2C(O)CCN2c2nc(C)cc(C(F)(F)F)c2C#N)c1	%	95.4
COc1cc(C2c3cc4c(cc3C(OC3OC5COC(C)OC5C(O)C3O)C3COC(=O)C23)OCO4)cc(OC)c1O (stereo not given) + COC1C(OC(N)=O)C(O)C(Oc2ccc3c(O)c(NC(=O)c4ccc(O)c(CC=C(C)C)c4)c(=O)oc3c2C)OC1(C)C	%	90.6

----------
tested on: 885724-159-R-J1-PDC complex spheroid viability; test: Anticancer human tumor 885724-159-R-J1-PDC cell line growth inhibition [POLQ]; conditions: second compound 0.0316 µM; first compound 0.1 µM; hits give low values;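 also: spheroids exposed to compounds for 7 days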
Listing: viability, T/C of selected compounds
PARAMETER: viability, T/C (%)

COMPOUND	REPORTED_MEASUREMENT
O=C(Nc1ccc(O)c(NS(=O)(=O)c2ccc(F)cc2)c1)c1ccc(-c2ccccc2)cc1 + Nc1ccc(C#CCN(C(=O)Cc2ncc(C(F)(F)F)cc2C(F)(F)F)c2ccc(F)cc2)nn1	94.2
CC1COCCN1c1cc(C2(O)CC3CCC(C2)O3)c2cnn(-c3ccn[nH]3)c2n1 (stereo unspecified) + COC1C(OC(N)=O)C(O)C(Oc2ccc3c(O)c(NC(=O)c4ccc(O)c(CC=C(C)C)c4)c(=O)oc3c2C)OC1(C)C	49.8
CC1COCCN1c1cc(C2(S(C)(=N)=O)CC2)nc(-c2ccnc3[nH]ccc23)n1 (stereo unspecified) + Cc1cccc(N(C)C(=O)C2C(O)CCN2c2nc(C)cc(C(F)(F)F)c2C#N)c1	97.3
CCCS(=O)(=O)Nc1ccc(F)c(C(=O)c2c[nH]c3ncc(-c4ccc(Cl)cc4)cc23)c1F + Cc1cccc(N(C)C(=O)C2C(O)CCN2c2nc(C)cc(C(F)(F)F)c2C#N)c1	118
COc1cccc(OCCCN)c1-c1cc(Nc2cnc(C#N)cn2)n[nH]1 + Nc1ccc(C#CCN(C(=O)Cc2ncc(C(F)(F)F)cc2C(F)(F)F)c2ccc(F)cc2)nn1	46
CC[C@@]1(O)C(=O)OCc2c1cc1n(c2=O)Cc2cc3c(CN(C)C)c(O)ccc3nc2-1 + Cc1cccc(N(C)C(=O)C2C(O)CCN2c2nc(C)cc(C(F)(F)F)c2C#N)c1	65.5
O=C(c1cc(Cc2n[nH]c(=O)c3ccccc23)ccc1F)N1CCN(C(=O)C2CC2)CC1 + COC1C(OC(N)=O)C(O)C(Oc2ccc3c(O)c(NC(=O)c4ccc(O)c(CC=C(C)C)c4)c(=O)oc3c2C)OC1(C)C	93.9
Nc1ccn(C2OC(CO)C(O)C2(F)F)c(=O)n1 (stereo unspecified) + Cc1cccc(N(C)C(=O)C2C(O)CCN2c2nc(C)cc(C(F)(F)F)c2C#N)c1	55.2
CNCc1ccc(-c2[nH]c3cc(F)cc4c3c2CCNC4=O)cc1 + Cc1cccc(N(C)C(=O)C2C(O)CCN2c2nc(C)cc(C(F)(F)F)c2C#N)c1	102
CC1COCCN1c1cc(-c2ccnn2C)c2ccnc(-c3ccn[nH]3)c2n1 (stereo unspecified) + Cc1cccc(N(C)C(=O)C2C(O)CCN2c2nc(C)cc(C(F)(F)F)c2C#N)c1	61.2
O=C(c1cc(Cc2n[nH]c(=O)c3ccccc23)ccc1F)N1CCN(C(=O)C2CC2)CC1 + Cc1cccc(N(C)C(=O)C2C(O)CCN2c2nc(C)cc(C(F)(F)F)c2C#N)c1	99.1

----------
Listing: viability, T/C of selected molecules
system: 885724-159-R-J1-PDC complex spheroid viability; assay: Anticancer human tumor 885724-159-R-J1-PDC cell line growth inhibition [POLQ]; conditions: second compound 0.316 µM; first compound 0.0316 µM; hits give low values;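 also: spheroids exposed to compounds for 7 days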

MOLECULE	viability, T/C
CC1COCCN1c1cc(-c2ccnn2C)c2ccnc(-c3ccn[nH]3)c2n1 (stereo not given) + Cc1cccc(N(C)C(=O)C2C(O)CCN2c2nc(C)cc(C(F)(F)F)c2C#N)c1	89.3%
COc1cccc2c1C(=O)c1c(O)c3c(c(O)c1C2=O)CC(O)(C(=O)CO)CC3OC1CC(N)C(O)C(C)O1 (stereo not given) + COC1C(OC(N)=O)C(O)C(Oc2ccc3c(O)c(NC(=O)c4ccc(O)c(CC=C(C)C)c4)c(=O)oc3c2C)OC1(C)C	71%
O=C(c1cc(Cc2n[nH]c(=O)c3ccccc23)ccc1F)N1CCN(C(=O)C2CC2)CC1 + Cc1cccc(N(C)C(=O)C2C(O)CCN2c2nc(C)cc(C(F)(F)F)c2C#N)c1	104%
CCCS(=O)(=O)Nc1ccc(F)c(C(=O)c2c[nH]c3ncc(-c4ccc(Cl)cc4)cc23)c1F + Cc1cccc(N(C)C(=O)C2C(O)CCN2c2nc(C)cc(C(F)(F)F)c2C#N)c1	103%
O=C(Nc1ccc(O)c(NS(=O)(=O)c2ccc(F)cc2)c1)c1ccc(-c2ccccc2)cc1 + Cc1cccc(N(C)C(=O)C2C(O)CCN2c2nc(C)cc(C(F)(F)F)c2C#N)c1	102%

----------
Listing: viability, T/C of selected compounds
system: 885724-159-R-J1-PDC complex spheroid viability; assay: Anticancer human tumor 885724-159-R-J1-PDC cell line growth inhibition [POLQ]; details: second compound 3.16 µM; first compound 10 µM; hits give low values;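 also: spheroids exposed to compounds for 7 days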

COMPOUND	TESTED_ON	viability, T/C
COc1cc2cc(C(=O)CCC(=O)O)sc2cc1OC + COC1C(OC(N)=O)C(O)C(Oc2ccc3c(O)c(NC(=O)c4ccc(O)c(CC=C(C)C)c4)c(=O)oc3c2C)OC1(C)C	885724-159-R-J1-PDC complex spheroid viability	79.8%
C=CC(=O)N1CCN(c2nc(=O)n(-c3c(C)ccnc3C(C)C)c3nc(-c4c(O)cccc4F)c(F)cc23)C(C)C1 (stereo not drawn) + Cc1cccc(N(C)C(=O)C2C(O)CCN2c2nc(C)cc(C(F)(F)F)c2C#N)c1	885724-159-R-J1-PDC complex spheroid viability	88.7%
CCCS(=O)(=O)Nc1ccc(F)c(C(=O)c2c[nH]c3ncc(-c4ccc(Cl)cc4)cc23)c1F + COC1C(OC(N)=O)C(O)C(Oc2ccc3c(O)c(NC(=O)c4ccc(O)c(CC=C(C)C)c4)c(=O)oc3c2C)OC1(C)C	885724-159-R-J1-PDC complex spheroid viability	82.4%
